Give measured koff for each item. Keep answers brief.
- TARGET SYSTEM: T1, His-tagged human TNFR2 (Human TNFR2/CD120b/TNFRSF1B Protein, His Tag, Acrobiosystems Cat #: TN2-5227) (human, UniProt P20333 23-257)
- T1 construct: Bought protein; also called hTNFR2-His; Recombinant human TNFR2 proteins with His-tag; not shown: His tag
- T1 sequence: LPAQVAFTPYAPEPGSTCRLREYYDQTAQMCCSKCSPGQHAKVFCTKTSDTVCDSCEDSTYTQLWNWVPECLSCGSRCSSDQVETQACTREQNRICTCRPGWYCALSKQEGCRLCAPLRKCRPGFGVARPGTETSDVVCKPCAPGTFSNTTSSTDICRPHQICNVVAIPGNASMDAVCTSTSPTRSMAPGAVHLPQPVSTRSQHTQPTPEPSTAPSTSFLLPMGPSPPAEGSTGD
- ASSAY EXPLANATION: SPR Biacore 8K, antibody captured on Protein A chip, hTNFR2-His as analyte, 1:1 model
The reply should contain only the number, in s⁻¹.

For record BC-1B6-IgG1 (antibody, V domains shown, Human VH/VL joined to the human IgG1 subtype) VH: QVQLVESGGGVVQPGRSLRLSCAASGFTFSNFGMHWVRQAPGKGLEWVAVIWYEGSDKYYADSVKGRFTISRDNSKNTLYLQMNSLRAEDTAVYYCARDSSWGFLLYGMDVWGQGTTVTVSS VL: DVVMTQSPLSLPVTLGQPASISCRSSRSLEYSDGNTYLNWFQQRPGQSPRRLIYKVSNRDSGVPDRFSGSGSGTAFTLKISGVEAEDVGVYYCMQGTHWPPTFGGGTKVEIK the listed koff is 0.00644

koff in this record for BC-1F4-IgG1 (antibody, V domains shown, Human VH/VL joined to the human IgG1 subtype) VH: QVQLQQSGPGLVKPSQTLSLTCAISGDSVSSDSSAWNWIRQSPSRGLEWLGRTYYRSKWYNDYTVSVKSRITINPDTSKNQFSLQLNSVTPEDTAVYYCAREDGVGGTKDYFDYWGQGTLVTVSS VL: DIQMTQSPSSLSASVGDRVTITCQASQDISNYLNWYQQKPGKAPKLLIYDASNLETGVPSRFSGSGSGTDFTFTINSLQPEDFATYFCQQYDNLPITFGQGTRLEIK : 0.00159

The binder listed as BC-1A8-IgG1 (antibody, V domains shown, Fully human VH/VL joined to the human IgG1 subtype, kappa light chain (RenMab mice)) VH: QVQLQQSGPGLVKPSQTLSLTCAISGDSVSSNSAAWNWIRQSPSRGLEWLGRTYYRSKWYNDYALSVKSRITINPETSKNQFSLQLNSVTPEDTAVYYCAREDGVGGTKDYFDYWGQGTLVTVSS VL: DIQMTQSPSSLSASVGDRVTITCQASQDIDNYLNWYQQKPGKAPKLLIYDVSNLEIGVPSRFSGSGSGTDFTFTISSLQPEDIATYYCQQYDNLPLTFGQGTRLEIK has a reported koff of 0.00126

response.value for BC-1C3-IgG1 (antibody, V domains shown, Human VH/VL joined to the human IgG1 subtype) VH: QVQLVESGGGVVHPGKSLRLSCAASGFTFNIYGMHWVRQAPGKGLEWVALISYDGNDKYFADSVKGRFTISRDNSKNTLYLQMNSLRAEDTAVYYCAKAVDTAVVTFFDYWGQGTLVTVSS VL: EIVMTQSPVTLSVSPGERATLSCRASQSVSSNLAWYQQKPGQAPRLLIYSASTRATGIPARFSGSGSGTEFTLTISSLQSEDLAVYYCQQYSNWPFTFGPGTKVDIK (field: koff) = 0.00115
